The compounds listed here are annotated with their cell viability.
- System: Calu-3
- testProtocol: cell viability relative to DMSO; higher = less toxic
- reportedConditions: 72 h; 10000 nM
State the answer as a number, implicitly in %.

Below, each entry is followed by its recorded cell viability result.
• Cc1nc2cnc3ccc(C#Cc4cccnc4)cc3c2n1-c1ccc(C(C)(C)C#N)cc1 = 30.2
• CCOc1ccc(S(=O)(=O)O)c2cccnc12 = 99.1
• CC(C)=CCC/C(C)=C/CC/C(C)=C/CSc1ccccc1C(=O)O = 99.2
• CNCc1cc(-c2ccccc2F)n(S(=O)(=O)c2cccnc2)c1 = 105
• CN1Cc2ccccc2[C@@H]2c3cccc4[nH]cc(c34)C[C@H]21 = 90.4
• Cc1[nH]cnc1CN1CCc2c(c3ccccc3n2C)C1=O = 106
• CC(C)(C)C(=O)OCC(=O)[C@H]1CC[C@H]2[C@@H]3CCC4=CC(=O)CC[C@]4(C)[C@H]3CC[C@]12C [desoxycorticosterone-pivalate] = 101
• CC(C)(Cc1ccc2ccccc2c1)NC[C@@H](O)COc1cccc(Cl)c1C#N = 0.6

Fill in the blank: the reported cell viability of O=C(O)CCCN1CCC(O[C@@H](c2ccc(Cl)cc2)c2ccccn2)CC1 is ____.
113

// repeat for COc1cc(Cc2cnc(N)nc2N)cc(OC)c1OC and report
113

// repeat for O=C(COc1ccc(Cl)cc1)N[C@H]1CC[C@H](NC(=O)COc2ccc(Cl)cc2)CC1 and report
99.1

// repeat for NCc1cc(O)no1 and report
97.3

// repeat for COc1ccc(-c2cc(C(F)F)nn2-c2ccc(S(N)(=O)=O)cc2)cc1F and report
109

// repeat for CN1CCN(c2ccc(/C=C(\C#N)c3ccccc3Br)cc2)CC1 and report
90.6

// repeat for CC(C)C[C@H](NC(=O)OCc1ccccc1)C(=O)N[C@@H](C[C@@H]1CCNC1=O)C(O)S(=O)(=O)O (some centres not stated) [GC376 sodium] and report
96.1

// repeat for COCCCOc1ccnc(C[S+]([O-])c2nc3ccccc3[nH]2)c1C (configuration not stated) and report
100

// repeat for C[C@@H]1[C@H](O)[C@@H](C)/C=C/C=C/C=C/C=C/C=C/C=C/C=C/[C@H](O[C@@H]2O[C@H](C)[C@@H](O)[C@H](N)[C@@H]2O)C[C@@H]2O[C@](O)(C[C@@H](O)C[C@@H](O)[C@H](O)CC[C@@H](O)C[C@@H](O)CC(=O)O[C@H]1C)C[C@H](O)[C@H]2C(=O)O and report
99.5

// repeat for CCCCCCCCCCCCCCCCCC(=O)OC[C@@H](O)[C@H]1OC[C@H](O)[C@H]1O [sorbitan-monostearate] and report
101

// repeat for CN(C)CC/C=C1/c2ccccc2Sc2ccc(Cl)cc21 and report
84.8

// repeat for Cc1csc(NC(=O)CSc2ccc(-c3ccccc3)nn2)n1 and report
108

// repeat for N#Cc1ccnc(N2C(=O)CC[C@H]2C(=O)N(c2cncc(F)c2)[C@H](C(=O)NC2CC(F)(F)C2)c2ccccc2Cl)c1 and report
97.3

// repeat for CC(C)NC(=N)NC(=N)Nc1ccc(Cl)cc1 and report
95.4

// repeat for c1cc(Nc2cc(C3CC3)n[nH]2)nc(Nc2ccc3[nH]cnc3c2)n1 and report
66.9

// repeat for CSCC[C@H](NC(=O)[C@H](CC(C)C)NC(=O)CNC(=O)[C@H](Cc1ccccc1)NC(=O)[C@H](Cc1ccccc1)NC(=O)[C@H](CCC(N)=O)NC(=O)[C@H](CCC(N)=O)NC(=O)[C@@H]1CCCN1C(=O)[C@H](CCCCN)NC(=O)[C@@H]1CCCN1C(=O)[C@@H](N)CCCN=C(N)N)C(N)=O and report
95.6

// repeat for CN(C)C(=O)Nc1cccc(-c2ccc(N(C)C)cc2)c1 and report
103

// repeat for O=C(O)C(=O)CBr [3-bromopyruvate] and report
94.2

// repeat for O=S1(=O)OC(c2ccc(O)cc2)(c2ccc(O)cc2)c2ccccc21 and report
93.2

// repeat for CC(C)NCC(O)COc1cccc2[nH]c3ccccc3c12 (configuration not stated) and report
106
